System: HMC 1-8 low-A1 cells, caspase-3/7 luminescence, 3 h
Test: caspase activation in low-A1 HMC 1-8 cells, dose response, counter-screen for A1 inhibitor project, cell-based, caspase luminescence (AID 449755)
Inconclusive results are not listed. Activity calls are given as the source filed them.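 How the source made its calls: active means compounds raising caspase signal whose fitted AC50 is at most ten times the top tested dose; inconclusive means flat fit with 30 to 70% activity, or failed fit; inactive means the rest.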
Possible outcomes: 1 for active, -1 for inactive

COMPOUND | TARGET ENTITY | DISCRETE LABEL
COc1ccc(N(C(=O)CCl)C(C(=O)NCCc2ccccc2)c2cccs2)cc1Cl (stereo not drawn) | HMC 1-8 low-A1 cells, caspase-3/7 luminescence, 3 h | -1
Cc1nn(Cc2ccc(Cl)cc2Cl)c(C)c1NC(=O)Cn1nc([N+](=O)[O-])c(Cl)c1C | HMC 1-8 low-A1 cells, caspase-3/7 luminescence, 3 h | -1
CC(C)c1cccc(-c2ccc3c(c2)S(=O)(=O)c2cccc(C(=O)NC4CCCC4)c2C3=O)c1 | HMC 1-8 low-A1 cells, caspase-3/7 luminescence, 3 h | -1
CC(C)Cn1c(O)c(/C=C2\C=NN=C2c2ccccc2)sc1=S | HMC 1-8 low-A1 cells, caspase-3/7 luminescence, 3 h | -1
O=C(COc1ccccc1[N+](=O)[O-])Nc1ccc(NC(=O)c2cc3ccccc3o2)cc1 | HMC 1-8 low-A1 cells, caspase-3/7 luminescence, 3 h | 1
COc1ccc(-c2cc(=O)oc3c(C)c(OC(=O)c4cccs4)ccc23)cc1 | HMC 1-8 low-A1 cells, caspase-3/7 luminescence, 3 h | -1
COc1cc(/C=C(/C#N)C(=O)Nc2ccc(Cl)cc2)ccc1Oc1nc(Cl)ncc1F | HMC 1-8 low-A1 cells, caspase-3/7 luminescence, 3 h | -1
N#Cc1cccnc1N1CCN(C(=O)c2cccc3c2C(=O)c2ccc(-c4ccc(Cl)c(C(F)(F)F)c4)cc2S3(=O)=O)CC1 | HMC 1-8 low-A1 cells, caspase-3/7 luminescence, 3 h | -1
COc1ccc(OC[C@@H](O)CNC(=O)c2cccc3c2C(=O)c2ccc(-c4ccc(F)cc4OCc4ccccc4)cc2S3(=O)=O)cc1 | HMC 1-8 low-A1 cells, caspase-3/7 luminescence, 3 h | -1
O=C(Nc1ccc([N+](=O)[O-])cc1)c1nc[nH]c1C(=O)NC1CCCCC1 | HMC 1-8 low-A1 cells, caspase-3/7 luminescence, 3 h | -1
COc1cc(NC(=O)c2ccccc2)c(OC)cc1NC(=O)Cc1ccc(Br)cc1 | HMC 1-8 low-A1 cells, caspase-3/7 luminescence, 3 h | -1
Cc1cccc(C)c1NC(=O)C(Cl)C(=O)c1ccccc1 (stereo not drawn) | HMC 1-8 low-A1 cells, caspase-3/7 luminescence, 3 h | -1
CCOC(=O)COc1ccccc1/C=C\[N+](=O)[O-] | HMC 1-8 low-A1 cells, caspase-3/7 luminescence, 3 h | -1
CCc1nn(-c2cc(Oc3cccc4ccccc34)nc(-c3ccccc3)n2)c(N)c1C#N | HMC 1-8 low-A1 cells, caspase-3/7 luminescence, 3 h | -1
CC(=O)OC(C)(C)/C=C/C(=O)[C@](C)(O)C1[C@H](O)C[C@@]2(C)C3CC=C4C(C[C@H](O)C(=O)C4(C)C)[C@]3(C)C(=O)C[C@]12C (stereo partly drawn) | HMC 1-8 low-A1 cells, caspase-3/7 luminescence, 3 h | -1
COc1ccc(NC(=O)c2cccc3c2C(=O)c2ccc(-c4ccc(F)cc4OCc4ccccc4)cc2S3(=O)=O)cc1 | HMC 1-8 low-A1 cells, caspase-3/7 luminescence, 3 h | -1
COc1ccc(Cn2c(SCc3ccc(C)cc3)nc3cc(OC)c(OC)cc3c2=N)cc1Cl | HMC 1-8 low-A1 cells, caspase-3/7 luminescence, 3 h | 1
CC1(C)C[C@H](O)[C@]2(CO)[C@H](O)C[C@]3(C)C(=CCC4[C@@]5(C)CC[C@H](O)C(C)(C)C5CC[C@]43C)[C@@H]2C1 (stereo partly drawn) | HMC 1-8 low-A1 cells, caspase-3/7 luminescence, 3 h | -1

Hey, just so you know, these numbers are from PubChem BioAssay AID449755.
